molecular target: Sodium channel protein type 2 subunit alpha (Homo sapiens, UniProt Q99250); experiment: Inhibition of human Nav1.2 channel expressed in HEK cells at 100 uM by patch-clamp electrophysiology method; assay type: cell-based; details: HEK293
Sequence (Q99250 whole entry, looked up): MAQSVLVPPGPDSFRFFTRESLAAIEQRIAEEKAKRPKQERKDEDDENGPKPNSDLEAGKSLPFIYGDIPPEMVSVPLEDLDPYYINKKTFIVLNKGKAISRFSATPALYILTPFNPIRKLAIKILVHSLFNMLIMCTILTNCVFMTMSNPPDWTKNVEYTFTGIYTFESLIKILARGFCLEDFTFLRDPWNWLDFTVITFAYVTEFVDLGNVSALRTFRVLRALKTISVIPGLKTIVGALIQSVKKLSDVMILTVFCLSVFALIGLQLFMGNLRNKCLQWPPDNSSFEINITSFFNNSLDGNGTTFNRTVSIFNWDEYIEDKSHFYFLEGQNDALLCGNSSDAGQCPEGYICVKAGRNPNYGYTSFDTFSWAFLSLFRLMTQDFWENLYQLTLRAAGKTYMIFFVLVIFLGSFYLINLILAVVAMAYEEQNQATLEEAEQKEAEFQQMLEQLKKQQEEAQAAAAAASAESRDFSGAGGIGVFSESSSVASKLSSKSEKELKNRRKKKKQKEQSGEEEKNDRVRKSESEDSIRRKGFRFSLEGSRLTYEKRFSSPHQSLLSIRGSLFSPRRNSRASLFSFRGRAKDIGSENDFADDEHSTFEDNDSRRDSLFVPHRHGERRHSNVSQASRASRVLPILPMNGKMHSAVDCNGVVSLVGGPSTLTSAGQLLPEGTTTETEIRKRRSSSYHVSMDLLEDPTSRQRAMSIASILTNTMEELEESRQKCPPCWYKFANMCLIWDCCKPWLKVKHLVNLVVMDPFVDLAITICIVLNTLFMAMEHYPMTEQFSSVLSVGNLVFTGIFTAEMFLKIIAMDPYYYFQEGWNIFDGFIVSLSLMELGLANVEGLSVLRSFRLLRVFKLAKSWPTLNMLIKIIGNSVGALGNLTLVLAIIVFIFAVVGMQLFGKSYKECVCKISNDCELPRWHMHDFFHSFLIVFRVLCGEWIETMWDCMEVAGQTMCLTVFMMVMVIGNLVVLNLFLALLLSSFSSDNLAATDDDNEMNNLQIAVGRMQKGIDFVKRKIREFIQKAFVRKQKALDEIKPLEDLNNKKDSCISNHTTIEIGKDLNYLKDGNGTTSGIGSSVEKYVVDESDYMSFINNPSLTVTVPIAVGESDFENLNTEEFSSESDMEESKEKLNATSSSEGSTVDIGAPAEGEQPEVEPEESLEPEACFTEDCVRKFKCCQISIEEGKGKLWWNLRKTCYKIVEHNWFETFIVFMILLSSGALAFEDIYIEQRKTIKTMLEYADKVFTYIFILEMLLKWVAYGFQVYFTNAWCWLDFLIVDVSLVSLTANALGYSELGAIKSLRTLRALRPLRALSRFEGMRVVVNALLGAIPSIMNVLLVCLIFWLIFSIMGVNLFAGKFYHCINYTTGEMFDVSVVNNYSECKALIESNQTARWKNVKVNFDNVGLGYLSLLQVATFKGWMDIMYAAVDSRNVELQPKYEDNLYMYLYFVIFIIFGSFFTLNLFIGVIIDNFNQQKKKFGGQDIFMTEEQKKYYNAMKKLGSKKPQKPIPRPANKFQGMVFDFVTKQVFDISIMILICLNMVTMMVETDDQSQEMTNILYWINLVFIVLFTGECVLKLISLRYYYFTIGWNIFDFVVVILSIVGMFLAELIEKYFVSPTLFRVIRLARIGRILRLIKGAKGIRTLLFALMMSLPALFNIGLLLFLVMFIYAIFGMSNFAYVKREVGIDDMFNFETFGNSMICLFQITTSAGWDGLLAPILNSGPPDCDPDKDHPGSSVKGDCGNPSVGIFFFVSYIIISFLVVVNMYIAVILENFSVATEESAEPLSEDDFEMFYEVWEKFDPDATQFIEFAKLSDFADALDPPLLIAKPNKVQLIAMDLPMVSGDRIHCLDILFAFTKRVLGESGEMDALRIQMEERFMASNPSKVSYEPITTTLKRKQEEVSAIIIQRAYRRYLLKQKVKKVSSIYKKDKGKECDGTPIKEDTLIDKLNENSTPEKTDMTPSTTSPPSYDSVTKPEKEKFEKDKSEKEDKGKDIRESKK
The entries below come with measured inhibition values attached.

| smiles data | inhibition (%) |
| --- | --- |
| c1ccc(-c2c[nH]c(-c3ccccc3)n2)cc1 | 80.5 |
| FC(F)(F)c1cccc(-c2c[nH]c(-c3cccc(C(F)(F)F)c3)n2)c1 | 100 |
| FC(F)(F)c1ccc(-c2c[nH]c(-c3ccccc3)n2)cc1 | 100 |
| FC(F)(F)c1cccc(-c2c[nH]c(-c3ccccc3)n2)c1 | 100 |
| Clc1ccc(-c2nc(-c3ccccc3)c[nH]2)cc1 | 100 |
| FC(F)(F)c1cccc(-c2c[nH]c(-c3ccc(Cl)cc3)n2)c1 | 43.6 |
| COc1cccc(-c2nc(-c3ccccc3)c[nH]2)c1 | 41.7 |
